Values from ChEMBL document CHEMBL3885861

- Organism: Rattus norvegicus
- Protocol: Open TG-GATES - Regimen: Single
- Type: toxicity, organism-based, Sprague-Dawley
- Design: regimen Single, gender Male, age 6 weeks
- Test Settings: in vivo, po, 0 mg/kg, 24 h, tissue Blood, route gavage, dose level Control
Each entry below carries its reported Fbg.

Name the reported Fbg value associated with the molecule CN(C)[C@@H]1C(O)=C(C(N)=O)C(=O)[C@@]2(O)C(O)=C3C(=O)c4c(O)cccc4[C@@](C)(O)[C@H]3C[C@@H]12 [TETRACYCLINE]
205.2 mg/dL

Param item = Clc1c(Cl)c(Cl)c(Cl)c(Cl)c1Cl [PERCHLOROBENZENE] ; retrieve measured Fbg.
216.6 mg/dL

Please give the measured Fbg for this molecule: C1CCC(C(CC2CCCCN2)C2CCCCC2)CC1 (stereo not given) [PERHEXILINE]
315.6 mg/dL

Field request: Fbg | item: Cc1cccc(Nc2ccccc2C(=O)O)c1C [MEFENAMIC ACID]
214.8 mg/dL

What measured Fbg goes with C#C[C@]1(O)CC[C@H]2[C@@H]3CCC4=Cc5oncc5C[C@]4(C)[C@H]3CC[C@@]21C [DANAZOL] ?
281 mg/dL

Request the reported Fbg associated with CC(CN1c2ccccc2Sc2ccccc21)N(C)C (stereo not given) [PROMETHAZINE]
326.8 mg/dL

Recorded Fbg for CCOC(=O)[C@H](CCc1ccccc1)N[C@@H](C)C(=O)N1CCC[C@H]1C(=O)O , please?
203.8 mg/dL

Any idea what its Fbg is? The molecule is COc1cc([C@@H]2c3cc4c(cc3[C@@H](O[C@@H]3O[C@@H]5CO[C@@H](C)O[C@H]5[C@H](O)[C@H]3O)[C@H]3COC(=O)[C@H]23)OCO4)cc(OC)c1O [ETOPOSIDE]
207.6 mg/dL

What does the data say about its Fbg? Entry: CC(=O)Nc1nnc(S(N)(=O)=O)s1 [ACETAZOLAMIDE]
288.8 mg/dL

So what does the record say about Fbg for CN1C(C(=O)Nc2ccccn2)=C(O)c2sc(Cl)cc2S1(=O)=O [LORNOXICAM] ?
225.8 mg/dL

* * *

Listing of recorded Cl by entry.
- Species: Rattus norvegicus
- Protocol: Open TG-GATES - Regimen: Daily Repeat
- Assay type: toxicity, organism-based, Sprague-Dawley
- Set-up: regimen Daily Repeat, gender Male, age 6 weeks
- Test Settings: in vivo, po, 0 mg/kg, […], tissue Plasma, route gavage, dose level Control, time 7 day
Hi! Could you send only the number? It should be in meq/L, unit omitted.

Sample answers from the record:
>  <Compound>
C1CCC(C(CC2CCCCN2)C2CCCCC2)CC1 (stereo not drawn)

>  <Reading>
106.6

$$$$
>  <Compound>
CN1C(C(=O)Nc2ccccn2)=C(O)c2sc(Cl)cc2S1(=O)=O

>  <Reading>
102.8

$$$$
>  <Compound>
CC(=O)Nc1nnc(S(N)(=O)=O)s1 [ACETAZOLAMIDE]

>  <Reading>
106.4

$$$$
>  <Compound>
Cc1cccc(Nc2ccccc2C(=O)O)c1C

>  <Reading>
103.4

$$$$
>  <Compound>
CCOC(=O)[C@H](CCc1ccccc1)N[C@@H](C)C(=O)N1CCC[C@H]1C(=O)O

>  <Reading>
106

$$$$
>  <Compound>
Clc1c(Cl)c(Cl)c(Cl)c(Cl)c1Cl

>  <Reading>
105.2

$$$$
>  <Compound>
CC(CN1c2ccccc2Sc2ccccc21)N(C)C (stereo not drawn)

>  <Reading>
104.6

$$$$

Give the measured Cl of CN(C)[C@@H]1C(O)=C(C(N)=O)C(=O)[C@@]2(O)C(O)=C3C(=O)c4c(O)cccc4[C@@](C)(O)[C@H]3C[C@@H]12 .
106.4

* * *

Entries and their measured MCHC follow.
- Species on record: Rattus norvegicus
- Protocol: Open TG-GATES - Regimen: Single
- Type: toxicity, organism-based, Sprague-Dawley
- Parameters: regimen Single, gender Male, age 6 weeks
- Test Settings: in vivo, po, 0 mg/kg, 9 h, tissue Blood, route gavage, dose level Control
Please reply with the bare figure in % and do not write the unit itself.

>  <Compound>
CCOC(=O)[C@H](CCc1ccccc1)N[C@@H](C)C(=O)N1CCC[C@H]1C(=O)O

>  <Property Label>
MCHC

>  <Reading>
32.8

$$$$

# lookup: MCHC of CN(C)[C@@H]1C(O)=C(C(N)=O)C(=O)[C@@]2(O)C(O)=C3C(=O)c4c(O)cccc4[C@@](C)(O)[C@H]3C[C@@H]12 [TETRACYCLINE]
33

// query MCHC value for entry Clc1c(Cl)c(Cl)c(Cl)c(Cl)c1Cl [PERCHLOROBENZENE]
35

Query: MCHC; subject: C1CCC(C(CC2CCCCN2)C2CCCCC2)CC1 (stereo not given) [PERHEXILINE]
33.7

I am curious: what MCHC value has been reported for C#C[C@]1(O)CC[C@H]2[C@@H]3CCC4=Cc5oncc5C[C@]4(C)[C@H]3CC[C@@]21C [DANAZOL] ?
32.5

Look up MCHC for this compound: CC(CN1c2ccccc2Sc2ccccc21)N(C)C (stereo not given) [PROMETHAZINE]
32.6

# get_value(readout='MCHC', item= CC(=O)Nc1nnc(S(N)(=O)=O)s1 [ACETAZOLAMIDE] )
32.3

Please report the recorded MCHC for Cc1cccc(Nc2ccccc2C(=O)O)c1C [MEFENAMIC ACID] .
35.6

What value of measured MCHC is listed for CN1C(C(=O)Nc2ccccn2)=C(O)c2sc(Cl)cc2S1(=O)=O [LORNOXICAM] ?
33.4

Could you tell me which MCHC is on file for COc1cc([C@@H]2c3cc4c(cc3[C@@H](O[C@@H]3O[C@@H]5CO[C@@H](C)O[C@H]5[C@H](O)[C@H]3O)[C@H]3COC(=O)[C@H]23)OCO4)cc(OC)c1O [ETOPOSIDE] ?
33.9

* * *

- Species on record: Rattus norvegicus
- Protocol: Open TG-GATES - Regimen: Single
- Assay type: toxicity, organism-based, Sprague-Dawley
- Design: regimen Single, gender Male, age 6 weeks
- Test Settings: in vivo, po, 0 mg/kg, 9 h, tissue Plasma, route gavage, dose level Control
Property Label: TG (mg/dL)
Report the value in mg/dL with no unit label.

Below: 3 compounds and their reported TG.
>  <Compound>
CN1C(C(=O)Nc2ccccn2)=C(O)c2sc(Cl)cc2S1(=O)=O

>  <Reading>
60.6

$$$$
>  <Compound>
CC(=O)Nc1nnc(S(N)(=O)=O)s1 [ACETAZOLAMIDE]

>  <Reading>
49.8

$$$$
>  <Compound>
C1CCC(C(CC2CCCCN2)C2CCCCC2)CC1 (stereo not given)

>  <Reading>
70

$$$$

What TG value was documented for this compound, C#C[C@]1(O)CC[C@H]2[C@@H]3CCC4=Cc5oncc5C[C@]4(C)[C@H]3CC[C@@]21C ?
54.8

Fill blank: measured TG of the compound COc1cc([C@@H]2c3cc4c(cc3[C@@H](O[C@@H]3O[C@@H]5CO[C@@H](C)O[C@H]5[C@H](O)[C@H]3O)[C@H]3COC(=O)[C@H]23)OCO4)cc(OC)c1O [ETOPOSIDE] is ____.
28.4

For the compound shown here, Clc1c(Cl)c(Cl)c(Cl)c(Cl)c1Cl , give the reported TG.
46.6

Would you kindly share the measured TG for CC(CN1c2ccccc2Sc2ccccc21)N(C)C (stereo not given) ?
55

Which TG is reported for this compound? Cc1cccc(Nc2ccccc2C(=O)O)c1C
55.4

Look at this compound and give its reported TG. CCOC(=O)[C@H](CCc1ccccc1)N[C@@H](C)C(=O)N1CCC[C@H]1C(=O)O
49.2

Param item = CN(C)[C@@H]1C(O)=C(C(N)=O)C(=O)[C@@]2(O)C(O)=C3C(=O)c4c(O)cccc4[C@@](C)(O)[C@H]3C[C@@H]12 ; retrieve measured TG.
23.6

* * *

- Species: Rattus norvegicus
- Protocol: Open TG-GATES - Regimen: Daily Repeat
- Type: toxicity, organism-based, Sprague-Dawley
- Design: regimen Daily Repeat, gender Male, age 6 weeks
- Test Settings: in vivo, po, 0 mg/kg, […], tissue Plasma, route gavage, dose level Control, time 14 day
Property Label: ALP (IU/L)
Please give a number only; it is taken to be in IU/L.

Worked set:
>  <Molecule>
O=C(O)Cc1ccccc1Nc1c(Cl)cccc1Cl

>  <ALP / IU/L>
720.8

$$$$
>  <Molecule>
CN(C)[C@@H]1C(O)=C(C(N)=O)C(=O)[C@@]2(O)C(O)=C3C(=O)c4c(O)cccc4[C@@](C)(O)[C@H]3C[C@@H]12

>  <ALP / IU/L>
903

$$$$
>  <Molecule>
C#C[C@]1(O)CC[C@H]2[C@@H]3CCC4=Cc5oncc5C[C@]4(C)[C@H]3CC[C@@]21C

>  <ALP / IU/L>
1603.8

$$$$
>  <Molecule>
Cc1cccc(Nc2ccccc2C(=O)O)c1C

>  <ALP / IU/L>
880

$$$$
>  <Molecule>
CN1C(C(=O)Nc2ccccn2)=C(O)c2sc(Cl)cc2S1(=O)=O

>  <ALP / IU/L>
781.8

$$$$

Name the reported ALP value associated with the molecule C1CCC(C(CC2CCCCN2)C2CCCCC2)CC1 (stereo not given)
1487.8

Request the reported ALP associated with Clc1c(Cl)c(Cl)c(Cl)c(Cl)c1Cl
615.2

Value lookup for ALP; key = CC(=O)Nc1nnc(S(N)(=O)=O)s1 [ACETAZOLAMIDE]
1570.4

Param item = CC(CN1c2ccccc2Sc2ccccc21)N(C)C (stereo not given) ; retrieve measured ALP.
1370.6

Find the recorded ALP belonging to CCOC(=O)[C@H](CCc1ccccc1)N[C@@H](C)C(=O)N1CCC[C@H]1C(=O)O and report it.
684
